src = patent US20170101472A1

target-under-test: T1, human LAG3 expressed on HEK293 cells (human, UniProt P18627 23-525)
T1 construct: also called hLAG3; HEK293/hLAG3
T1 sequence: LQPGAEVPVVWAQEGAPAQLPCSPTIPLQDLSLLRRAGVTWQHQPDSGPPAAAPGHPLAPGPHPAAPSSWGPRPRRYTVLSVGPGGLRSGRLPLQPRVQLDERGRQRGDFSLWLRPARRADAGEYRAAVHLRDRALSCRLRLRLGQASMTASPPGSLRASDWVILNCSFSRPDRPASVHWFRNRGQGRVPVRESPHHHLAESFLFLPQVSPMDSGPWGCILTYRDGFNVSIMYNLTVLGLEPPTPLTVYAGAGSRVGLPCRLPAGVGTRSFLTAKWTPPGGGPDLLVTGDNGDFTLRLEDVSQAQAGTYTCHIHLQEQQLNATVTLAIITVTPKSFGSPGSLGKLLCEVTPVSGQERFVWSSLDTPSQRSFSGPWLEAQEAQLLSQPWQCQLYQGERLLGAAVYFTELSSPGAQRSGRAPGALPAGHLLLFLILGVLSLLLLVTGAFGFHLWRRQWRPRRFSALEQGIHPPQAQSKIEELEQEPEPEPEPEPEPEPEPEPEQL
measurement-notes: electrochemiluminescence cell binding
In this section, each of the binders is paired with its reported Ratio of 100 nM antibody binding HEK293-hLAG3 to HEK293 cells.
property-label: Ratio of 100 nM antibody binding HEK293-hLAG3 to HEK293 cells

{"binder": "H4H15483P (antibody, human IgG4, V domains shown, H4H = human IgG4 Fc with S108P hinge mutation) VH: QVQLQQWGAGLLPPSETLSLICAVYGGSFSGYYWSWIRQPPGKGLEWIGEINHRGSTNYNPSLKSRATISVDTSKNQFSLKLSSVTAADTAVYYCSRGEDYYDSSGYSYYFDYWGQGTLVTVSS VL: EIVLTQSPATLSLSPGERATLSCRASQSVSSYLAWYQQKPGQAPRLLIYDASNRATGIPARFSGSGSGTDFTLTISSLEPEDFAVYYCQQRSNWPLTFGGGTKVEIK", "data-value": 6.6}
{"binder": "H4H17819P (antibody, human IgG4, V domains shown, H4H = human IgG4 Fc with S108P hinge mutation) VH: EVQLVESGGGLVQPGGSLRLSCVASGFTFSLYAMTWVRQVPGKGLEWVSTISGSGGGTYYTDSVKGRFTISRDNSKNTLYLQMNSLRADDTAVFYCTKESTTGTYSYFYGMDVWGQGTTVTVSS VL: DIQMTQSPSSLSASVGDRVTITCRASQTISSYLNWYQQKPGKAPKLLIYAASSLQSGVPSRFSGSGSGTDFTLTLSGLQPEDFATYYCQQSYSTPLTFGGGTKVEIK", "data-value": 22.7}
{"binder": "H4H17823P (antibody, human IgG4, V domains shown, H4H = human IgG4 Fc with S108P hinge mutation) VH: EVQLLESGGGLVQPGGSLRLSCAASGFTFRSYAMSWVRQAPGKGLEWVSVISGGGGRTYYTDSVKGRFTISRDNSKSMLYLQMNSLRAEDTAIYYCAKERVTGIDHYYYGVDVWGQGTTVTVSS VL: DIQMTQSPSSLSASVGDRVTITCRASQSISSYLNWYQQKPGKAPKLLIYATSSLQSGVPSRFSGSASGTDFTLAISSLQPEDFATYYCQQSYTTPLTFGGGTKVEIK", "data-value": 5.3}
